- Test system: NCI-H23
- experimentDescription: NCI tumour cell line growth inhibition, 48 h
Active and inactive are the calls of the source. No stated cut-off is given here; in the data, active = GI50 up to about 1.1 µM and inactive = higher.
Log the outcome using a class from class 1 = active, class 0 = inactive

CC(C)(C)OC(=O)N[C@H]1CC(O)c2ccccc2N(CC(=O)O)C1=O (stereo not given in full) ... class 0
Cc1ccc(C(=O)/C=C2\Nc3cccnc3NC2=O)cc1 ... class 0
O=C1c2cccc3cccc(c23)C(=O)N1CCCNCCCCNCCCN1C(=O)c2cccc3cccc(c23)C1=O ... class 1
COC(=O)/C=C\Sc1ccn(/C=C\C(=O)OC)c(=S)n1 ... class 0
Cc1cc(C)c(C[C@H]2COC(=O)[C@]2(O)Cc2c(C)cc(C)cc2C)c(C)c1 ... class 0

Per the records of this test, what outcome belongs to C[C@]12CCC(=O)C=C1CC[C@@H]1[C@@H]2CC[C@]2(C)C(=O)/C(=C/c3ccncc3)C[C@@H]12 ?
class 0

Field entry: Cc1[nH]n(-c2nc(O)c(C)c(=O)[nH]2)c(=O)c1CCO
class 0

---

- Test system: NCI/ADR-RES
- experimentDescription: NCI tumour cell line growth inhibition, 48 h
The source made the active and inactive calls. Rule as the data show it: active = GI50 up to about 1.1 µM and inactive = higher.
Respond using exactly one of the listed classes: class 1 for active, class 0 for inactive

// below: answered molecules
COC1=CC(=O)c2c(O)c3c(c(O)c2C1=O)C=C(C)OC3O (stereo not given) ... class 0
O=C1OC(=O)c2cc(S(=O)(=O)c3ccc4c(c3)C(=O)OC4=O)ccc21 ... class 0
CCOC(=O)C(=CNc1ccc(F)c(F)c1)C(=O)OCC ... class 0
CNC(=O)c1ccccc1[S+]1c2cccc3cccc(c23)C(=O)N1C (stereo not given) ... class 0
COc1ccc(Nc2c(C#N)c3n(c4ccccc24)c2ccccc2[n+]3C)cc1OC ... class 0
Cc1cc2cc3c(cc2c(-c2ccc([N+](=O)[O-])cc2)n1)OCO3 ... class 0

// param item: COc1cc(C=C2C(=O)NC(=S)NC2=O)cc(OC)c1OC ; yields the recorded call
class 0

Another molecule to look at: COc1cc2c(cc1C)NC(=O)/C2=C/c1cccnc1
class 0

Another molecule to look at: CC(=O)NC1C(OC2C(CO)OC(OCC3OC(n4ccc(N)nc4=O)C(O)C3O)C(NC(C)=O)C2O)OC(CO)C(O)C1O (stereo not given)
class 0

Then what about the molecule O=C(NC1(C(=O)O)CC1c1ccccc1)c1ccccc1 (stereo not given) ?
class 0

Same thing, different molecule: Cc1ccc2c(c1)C(=O)/C(=C\c1ccc(Cl)cc1)CCS2(=O)=O
class 0

// next record CCOP(=O)(OCC)C(Nc1ccc(F)cc1)c1cccc([N+](=O)[O-])c1 (stereo not given)
class 0

---

- System: SNB-75
- experimentDescription: NCI tumour cell line growth inhibition, 48 h
The source made the active and inactive calls. Rule as the data show it: active = GI50 up to about 1.1 µM and inactive = higher.
Entry note: the call must match one of active, inactive

COC1CC(OC2CCC3(C)C(CCC45CCC(C6=CC(=O)OC6)C(C)(CCC43)C5=O)C2)OC(C)C1O (centres undefined) ... inactive

// outcome(item) with item = O=C(N/N=C(COc1ccccc1)\N=C\c1ccncc1)c1ccncc1
inactive

Now the same for O=C1CSC(c2cccs2)N1c1nc2cc3sc(N4C(=O)CSC4c4cccs4)nc3cc2s1 (centres undefined)
inactive

Same question for Cc1ccc(Cc2c(=O)[nH]nc3ccccc23)cc1 please.
inactive

Next: O=C(Nc1ccc(Sc2ccc(/N=N/c3c(O)c(S(=O)(=O)O)cc4cc(S(=O)(=O)O)ccc34)cc2)cc1)c1ccc(/N=N/c2c(O)ccc3c(S(=O)(=O)O)cc(S(=O)(=O)O)cc23)cc1
inactive

Same question, C/C(=N\NC(=[Se])N1CCN(c2ccccn2)CC1)c1ccccn1 this time
inactive

Item: O=C(CN1CCOCC1)c1ccc2c(c1)oc(=O)n2CCN1CCCCC1
active

Repeat with COC1=CC(=O)c2c(O)c3c(c(O)c2C1=O)C=C(C)OC3O (centres undefined)
inactive

And CC(=O)NC(NCCN)(c1ccccc1)c1ccccc1 ?
inactive

---

- System: NCI-H23
- experimentDescription: NCI tumour cell line growth inhibition, 48 h
Active and inactive are the calls of the source. Rule as the data show it: active = GI50 up to about 1.1 µM and inactive = higher.
Output constraint: value belongs to true (active), false (inactive)

Look over these answered cases.
c1ccc(C2C3=C(CCCC3)Nc3nnnn32)cc1 (stereo unspecified) ... false
O=C(N/N=C(COc1ccccc1)\N=C\c1ccncc1)c1ccncc1 ... false
COc1cc(C=C2C(=O)NC(=S)NC2=O)cc(OC)c1OC ... false
O=C(Nc1ccc(Cl)cc1)C1C(=O)C(=O)N(c2ccc(Cl)cc2)C1=O (stereo unspecified) ... false
CCOC(=O)N1N(c2ccccc2)C(=O)C1(c1ccccc1)c1ccccc1 ... false

As a next step, examine the molecule that follows.
Outcome? CCCCCCc1cc2cc(C(=O)Nc3cccc(C(F)(F)F)c3)c(=N)oc2cc1O
true

---

- Tested on: OVCAR-3
- experimentDescription: NCI tumour cell line growth inhibition, 48 h
Active and inactive are the calls of the source. Rule as the data show it: active = GI50 up to about 1.1 µM and inactive = higher.
Just give me one of these, please: Yes for active, No for inactive

CC1(C)C2C=CC1(C)C1(CC2)OCCO1 (stereo not drawn) ... No

For COc1ccc(CC[N+]2(C)COc3cc4oc(=O)cc(C)c4cc3C2)cc1OC (stereo not drawn) , what call appears in the results of this test?
No

---

- System: OVCAR-4
- experimentDescription: NCI tumour cell line growth inhibition, 48 h
The source made the active and inactive calls. No stated cut-off is given here; in the data, active = GI50 up to about 1.1 µM and inactive = higher.
measurementType: GI50

Please review the entries below; each comes with its answer.
COc1ccc(-c2c3c(nc4nc(SCC(=O)c5ccc(Br)cc5)nc(N)c24)CCCC3)cc1OC ... 33.7 µM (inactive)
Cc1n[nH]c(=O)n1/N=C/c1ccc(Cl)cc1 ... 98.4 µM (inactive)
CS(=O)(=O)Nc1ccc2c(c1)N(S(C)(=O)=O)CC2CCl (stereo not given) ... > 100 µM (inactive)
[O-][S+](c1ccccc1)c1ccc(/N=N/O)nc1 (stereo not given) ... > 100 µM (inactive)
COc1ccc(OC)c2c1-c1nnnn1CCC2(C)C ... > 100 µM (inactive)

Given O=C1C(Cl)=C(Cl)C(=O)C2=C1C1c3ccccc3C2c2ccccc21 , state its recorded GI50.
34.3 µM (inactive)

Try this molecule too: CCOC(=O)c1ccc(N2C(=O)/C(=C/c3ccc(N(CCC#N)CCC#N)cc3)N=C2c2cc([N+](=O)[O-])ccc2Cl)cc1
> 100 µM (inactive)

Record: CCOP(=O)(OCC)C(Cc1ccccc1)N=C(c1ccccc1)c1ccccc1 (stereo not given)
16.2 µM (inactive)

---

- Tested on: EKVX
- experimentDescription: NCI tumour cell line growth inhibition, 48 h
Activity calls are given as the source filed them. Cut-off read from the data, not from the text of the source: active = GI50 up to about 1.1 µM and inactive = higher.
Write down one outcome, taken from yes (1) for active, no (0) for inactive

CC1=NNC(=O)C1C1CC(c2c[nH]c3ccccc23)=NN=C1Cl (stereo unspecified) ... no (0)
Cc1cccc(Nc2cc(Cl)nc(SCC(=O)O)n2)c1C ... no (0)
CN(C)CC/C=C1\c2ccccc2Sc2ccc(Cl)cc21 ... no (0)
COc1ccc(OC)c(/C=C/C(=O)C(C)(C)C)c1 ... no (0)
COc1ccc2c(N=[N+]=[N-])c(-c3ccccc3)c(=O)oc2c1 ... no (0)
C[C@@H]1C[C@]2(C[C@@H](C)[C@H]3C(C[C@@]4(C)CCC[C@@H]5C6=C[C@H](CCC34C)OC6=CC(=O)OC5(C)C)O2)OC1=O (stereo partly specified) ... no (0)
COc1ccc(-c2c3c(nc4nc(SCC(=O)c5ccc(Br)cc5)nc(N)c24)CCCC3)cc1OC ... no (0)
COc1ccc(/C=C/C(=O)N[C@@H]2C(=O)N3[C@@H]2SC(C)(C)[C@@H]3C(=O)O)cc1OC ... no (0)
CC(=O)c1ccc(Oc2c3ccccc3nc3ccccc23)cc1 ... no (0)
CCCCCCCCCC[S+]([O-])CC(CO)NC(=O)/C=C/c1c(C)nc(O)nc1O (stereo unspecified) ... yes (1)

Consider now this further compound.
Identify the outcome logged in this assay for the compound shown: C(=N\N=C1NCCCCN1)/c1ccc2ccccc2c1
no (0)

---

- System: UACC-62
- experimentDescription: NCI tumour cell line growth inhibition, 48 h
Activity calls are given as the source filed them. Rule as the data show it: active = GI50 up to about 1.1 µM and inactive = higher.
measurementType: GI50

Worked examples follow.
Nc1ccc2c(SCC(=O)Nc3ccccc3-c3ccccc3NC(=O)CSc3c4ccccc4nc4cc(N)ccc34)c3ccccc3nc2c1 ... 18.9 µM (inactive)
C=C(C)C1CC2C(C)=C(OC(C)=O)C1n1c(=O)c3cc4ccccc4cc3c(=O)n12 (stereo not given) ... 31.8 µM (inactive)

// below: GI50 requested for another compound
Item under review: Nc1ncnc2c1nnn2C1CCC(CP(=O)(O)O)C1 (stereo not given) . Reported GI50?
> 100 µM (inactive)

---

- Test system: UO-31
- experimentDescription: NCI tumour cell line growth inhibition, 48 h
Active and inactive are the calls of the source. Rule as the data show it: active = GI50 up to about 1.1 µM and inactive = higher.
measurementType: GI50

NC(Cc1ccccc1CP(=O)(O)O)C(=O)O (centres undefined) ... > 100 µM (inactive)
O=C1[C@@H](O)[C@@H]2CCCC[C@@]23CCCN13 ... > 100 µM (inactive)
C/C=C1\CCC2c3[nH]c4ccccc4c3CCN2C1 (centres undefined) ... 38.6 µM (inactive)

Let us move to another entry and its GI50.
What value of GI50 has been reported for the following molecule? COc1cc(/C=C/C(=N\NC(=O)c2ccccc2)c2sc(Nc3ccc(Cl)c(Cl)c3)nc2C)ccc1O
28.8 µM (inactive)

Taken from ChEMBL document CHEMBL1201862.
